test: Human HepG2 cell viability assay in 384 well format; type: toxicity, cell-based; set-up: dose 125 nL, time 70.5 hour; concentration not given beside the values; details: HepG2 cells, read-out: Inhibition
Endpoint Name: cytotoxicity at 70.5 h (%)
Quick reminder: number only, in %, skip the unit.

QUERY: If you can, please state the reported cytotoxicity at 70.5 h value of Cc1nc(C)n(CC2CN(c3nnc(C)c(C)c3C#N)CCO2)n1 (stereo unspecified) .
RESULT: 5.76

QUERY: Another compound: CC(=O)NCC1CN(c2ccc3c(Cl)ccnc3c2F)CCO1 (stereo unspecified)
RESULT: -7.29

QUERY: Another compound: O=c1ccc(-n2ccnc2)nn1CCNS(=O)(=O)c1ccccc1Cl
RESULT: -1.86

QUERY: Another compound: O=C(N1CCCC1)N1CCC(c2nccn2Cc2cscn2)CC1
RESULT: -5.23

QUERY: Another compound: Cn1cnnc1CCNC(=O)c1cnn(Cc2ccccc2)c1
RESULT: -14.9

QUERY: Another compound: CN(CCn1ccc2ccccc21)C(=O)CS(C)(=O)=O
RESULT: 18

###

experiment: Human HepG2 cell viability assay in 384 well format; format: toxicity, cell-based; design: dose 125 nL, time 70.5 hour; concentration not given beside the values; conditions: HepG2 cells, read-out: Inhibition
Below, each entry is listed with its recorded cytotoxicity at 70.5 h.
Quick reminder: number only, in %, skip the unit.

| Molecule | cytotoxicity at 70.5 h [%] |
| --- | --- |
| CCCc1n[nH]c(C2CN(CCC(F)(F)F)CCO2)n1 (stereo not drawn) | -5.18 |

QUERY: If you can, please state the reported cytotoxicity at 70.5 h value of CCn1cc(NC(=O)NCc2ccc(CN3CCOCC3)cc2)cn1 .
RESULT: -6.5

QUERY: Another molecule: COc1ccsc1C(=O)N1CCCN(Cc2cscn2)CC1
RESULT: -5.36

QUERY: Another molecule: CN(Cc1ccco1)C(=O)CN1C(=O)c2ccccc2C1=O
RESULT: -2.38

QUERY: Another molecule: COc1ccc(CCC2CCCN(C(=O)c3cnc(N)nc3C)C2)cc1 (stereo not drawn)
RESULT: -18.9

QUERY: Another molecule: CO[C@H]1C[C@@H](O)C12CCN(C(=O)c1cccc(CCC(C)(C)O)c1)CC2
RESULT: -0.132

###

Below, each entry is listed with its recorded cytotoxicity at 70.5 h.
assay: Human HepG2 cell viability assay in 384 well format; type: toxicity, cell-based; parameters: dose 125 nL, time 70.5 hour; concentration not given beside the values; conditions: HepG2 cells, read-out: Inhibition

| Compound | cytotoxicity at 70.5 h |
| --- | --- |
| CC(=O)c1ccc(N2CCN(C(=O)NC(C)c3ccc(C)o3)CC2)cc1 (stereo not given) | -3.78% |
| CN1CCN(C(=O)c2cnn(-c3ccccc3Cl)c2)CC1 | -8.29% |
| O[C@@H]1CN(Cc2ccc(F)c(F)c2)CC[C@H]1NCc1ccccn1 | 22.5% |
| CCC(O)CN1CCN(C(=O)c2cccn2Cc2cccs2)CC1 (stereo not given) | -17.9% |

QUERY: If you can, please state the reported cytotoxicity at 70.5 h value of COc1ccc(Cc2nnc(NC(=O)C3CC34CCC4)s2)cc1OC (stereo not given) .
RESULT: 0.282%

QUERY: Another compound: O=C(O)c1ccc(COc2cccc(Cl)c2)s1
RESULT: -5.91%

QUERY: Another compound: Brc1cc(CNCc2nnc3n2CCC3)cs1
RESULT: -8.54%

QUERY: Another compound: CCOCCN1CCN(C(C)c2nc(C3CC3)no2)CC1 (stereo not given)
RESULT: 12.1%

QUERY: Another compound: CCc1nc(CN2CCOC(CNc3cccnn3)C2)cs1 (stereo not given)
RESULT: 10.3%

QUERY: Another compound: Cc1nnn2c1COCC(CNC(=O)c1ccnnc1)C2 (stereo not given)
RESULT: -0.292%

QUERY: Another compound: CS(=O)(=O)Cc1nc(CNc2ccc(F)c(F)c2)cs1
RESULT: -6.66%

QUERY: Another compound: O=S(=O)(CC1CCCCC1)NCc1ccc(O)nc1
RESULT: -10.2%

QUERY: Another compound: COCCC(=O)N1CCC2(COCc3cnc(N4CCOCC4)nc32)C1 (stereo not given)
RESULT: -15.1%

QUERY: Another compound: CNC(=O)[C@@H]1C[C@H]2CN(C(=O)c3ccco3)C[C@H]2N1C
RESULT: 2.59%

QUERY: Another compound: COCCN1C(=O)CC(N2CCN(c3ccc(F)cc3)CC2)C1=O (stereo not given)
RESULT: 13.6%

QUERY: Another compound: CCCNC(=O)c1ncn2c1CN(CC(C)C)S(=O)(=O)c1ccccc1-2
RESULT: 13.4%
